System: S37 murine sarcoma cell line
test.details: Photoinduced (combined) cytotoxicity, MTT assay after irradiation
Format: cell-based
protocol.conditions: S37 cells; 4 h PS incubation, irradiation at 10 J/cm^2, MTT after 72 h; read-out: IC50, Combined cytotoxicity
observable: IC50 (nM)
Hi! Could you send only the number? It should be in nM, unit omitted.

Tested system S37 murine sarcoma cell line; IC50 recorded for C=Cc1c(C)c2cc3nc(c4c5[nH]c(cc6nc(cc1[nH]2)C(C)=C6CC)c(C)c5C(=[S+][Pt-2]([NH3+])([NH3+])[Cl])C4)[C@@H](CCC(=O)OC)[C@@H]3C.O=[N+]([O-])[O-] (stereo partly shown) [Compound 7] was 98
